Origin of the recorded values: patent US12390437B2

System: IL-6 cytokine output from THP-1s
ASSAY_NOTES: THP-1 AlphaLISA IL-6 cytokine assay
Assay type: cell-based, human
CONDITION_DESCRIPTION: Homo sapiens; PMA-differentiated THP-1 cells, LPS 24 hr then Nigericin 1 hour
OBSERVED_PROPERTY: pIC50
The scale used: pIC50 is minus the common logarithm of the concentration in molar units.

Below are worked cases with known answers.
C=C(CC(=O)OCCCCCCCC)C(=O)OCCC(F)(F)F [Example 3] :: 4.25
C=C(CC(=O)OCc1ccc(F)cc1)C(=O)OCCC(=O)O [Example 81] :: 4.28
C=C(CC(=O)OC1CC2CCC1C2)C(=O)OCC(=O)O (centres unmarked) [Example 115] :: 4.44

What does the record list as pIC50 for C=C(CC(=O)OCCCCCCCC)C(=O)OCCS(=O)(=O)c1ccc(C)cc1 [Example 40] ?
5.47

What does the record list as pIC50 for C=C(CC(=O)OCCCCCCCC)C(=O)OCCC(=O)O [Example 80] ?
5.28

What does the record list as pIC50 for C=C(CC(=O)OCCCCCC)C(=O)OCCC(=O)NS(C)(=O)=O [Example 120] ?
5.11

What does the record list as pIC50 for C=C(CC(=O)OCCCCCCCC)C(=O)OC1CCN(S(C)(=O)=O)CC1 [Example 28] ?
5.66

---

ASSAY_NOTES: Mouse pharmacokinetic study, intravenous dosing
Assay type: in vivo
CONDITION_DESCRIPTION: male, C57BL/6, mouse, iv; plasma, 10 mg/kg i.v., time 4 h; read-out: Parent compound concentration following intravenous administration
Procedure: Pharmacokinetic studies were carried out in 6-8-week-old male C57BL/6 mice having free access to food and water. […] For both intravenous and oral routes, the mice were restrained manually at the designated time points, with ca. 110 μL of blood being taken into K2EDTA tubes via the facial vein. Blood samples were put on ice and centrifuged to obtain plasma samples from which the concentration at each time point was measured by LC-MS/MS.
OBSERVED_PROPERTY: concentration at 4 h

Below are worked cases with known answers.
C=C(CC(=O)OC1CCCCC1)C(=O)OCc1nnn[nH]1 [Example 125] :: < 0.8 ng/mL
C=C(CC(=O)OC)C(=O)OC [dimethyl itaconate, reference compound] :: < 24 ng/mL

What does the record list as concentration at 4 h for C=C(CC(=O)OC(CCCC)CCCC)C(=O)OCC(=O)O [Example 175] ?
< 4 ng/mL

---

System: IL-1β cytokine output from THP-1s
ASSAY_NOTES: THP-1 AlphaLISA IL-1β cytokine assay
Type: cell-based, human
CONDITION_DESCRIPTION: Homo sapiens, THP-1, PMA-differentiated THP-1 cells, LPS 24 hr then Nigericin 1 hour; read-out: IL-1β (IC50)
Entries and their log10 of IC50
The figures below represent log10 of IC50, where IC50 is stated in µM.

Below are worked cases with known answers.
C=C(C(=O)OCC(=O)O)C(C)C(=O)OC1CCCCCCC1 (stereo not shown) :: 1.69
C=C(CC(=O)OC1(CCCCC)CCC1)C(=O)OCC(=O)O :: 1.39
C=C(CC(=O)OCCCCCCCC)C(=O)OCCC(=O)NC :: 0.93
C=C(CC(=O)OC1CCCCCCC1)C(=O)OC1CCN(S(C)(=O)=O)CC1 :: 0.23

What does the record list as log10 of IC50 for `C=C(CC(=O)OC1CCCCC1)C(=O)O[C@@H](C(=O)O)c1ccccc1` ?
1.65

What does the record list as log10 of IC50 for `C=C(CC(=O)OCCCCCCCC)C(=O)OCCN1CCN(C)CC1` ?
0.86

What does the record list as log10 of IC50 for `C=C(CC(=O)OCCCCCCCC)C(=O)OC1CCN(S(C)(=O)=O)CC1` ?
0.72

What does the record list as log10 of IC50 for `C=C(CC(=O)O[C@@H](C)CCCCCC)C(=O)OCC(=O)N(C)CC(=O)O` ?
1.45

What does the record list as log10 of IC50 for `C=C(CC(=O)O[C@@H](C)CCCCCC)C(=O)OCCC(=O)O` ?
1.16

What does the record list as log10 of IC50 for `C=C(CC(=O)OC1CCCCC1)C(=O)OC1CCOCC1` ?
1.01

What does the record list as log10 of IC50 for C=C(CC(=O)OC1CCCCCCC1)C(=O)OC(C(=O)O)C(F)(F)F (stereo not shown) ?
1.11

What does the record list as log10 of IC50 for `C=C(CC(=O)OCCCCCCCC)C(=O)OCC(C)(C)C#N` ?
1.05

What does the record list as log10 of IC50 for `C=C(CC(=O)OCCCCCCCC)C(=O)OCCC(F)(F)F` ?
1.19

What does the record list as log10 of IC50 for `C=C(CC(=O)OC1(CCCCC)CC1)C(=O)OCC(=O)O` ?
1.28

What does the record list as log10 of IC50 for `C=C(CC(=O)OC1CCCCC1)C(=O)OC1CS(=O)(=O)C1` ?
0.28

What does the record list as log10 of IC50 for `C=C(CC(=O)OC1CCCCCCC1)C(=O)OCC(C)(C)S(=O)(=O)c1cccc(Cl)c1` ?
0.64

What does the record list as log10 of IC50 for `C=C(CC(=O)O[C@H](C)CCCCCC)C(=O)OCc1nn[nH]n1` ?
0.83

What does the record list as log10 of IC50 for `C=C(CC(=O)OCCCCCCCC)C(=O)OC1COC1` ?
0.97

What does the record list as log10 of IC50 for `C=C(CC(=O)O[C@@H](CC)CCCCC)C(=O)OCC(=O)O` ?
1.17
